Catalogue of inhibition at 10 µM values
Tested on: Breast Cancer Cell Line BT-549
Experiment: cells
Format: cell-based
Conditions: Homo sapiens, BT-549, read-out: inhibition of proliferation
Measured Attribute: inhibition at 10 µM

INSERT INTO measurements (structure_string, system_tested, measured_attribute, result) VALUES
  ('CC[C@H](Nc1cc(C)nc(N)n1)c1nc2cccc(NCc3ccc(C(=O)NO)cc3)c2c(=O)n1-c1ccccc1', 'Breast Cancer Cell Line BT-549', 'inhibition at 10 µM', '> 50%'),
  ('CC[C@H](Nc1ncnc2[nH]cnc12)c1nc2cccc(NCc3ccc(C(=O)NO)nc3)c2c(=O)n1-c1ccccc1', 'Breast Cancer Cell Line BT-549', 'inhibition at 10 µM', '> 50%'),
  ('CC[C@H](Nc1nc(N)nc(C)c1C#N)c1nc2cccc(NCc3ccc(C(=O)NO)cc3)c2c(=O)n1-c1ccccc1', 'Breast Cancer Cell Line BT-549', 'inhibition at 10 µM', '> 50%'),
  ('CC[C@H](Nc1ncnc2[nH]cnc12)c1nc2cccc(CCCCNC(=O)NO)c2c(=O)n1-c1ccccc1', 'Breast Cancer Cell Line BT-549', 'inhibition at 10 µM', '25 to 50%');

====

Test system: Leukemia Cell Line CCRF-CEM
Assay: cells
Assay type: cell-based
Settings: Homo sapiens, read-out: inhibition of proliferation
Catalogue of inhibition at 10 µM values
Measured Attribute: inhibition at 10 µM

INSERT INTO results (molecule, result) VALUES
  ('CC[C@H](Nc1ncnc2[nH]cnc12)c1nc2cccc(NCc3ccc(C(=O)NO)nc3)c2c(=O)n1-c1ccccc1 [V]', '> 50%'),
  ('CC[C@H](Nc1ncnc2[nH]cnc12)c1nc2cccc(CCCCC(=O)NO)c2c(=O)n1-c1ccccc1 [XII]', '25 to 50%'),
  ('CC[C@H](Nc1cc(C)nc(N)n1)c1nc2cccc(NCc3ccc(C(=O)NO)cc3)c2c(=O)n1-c1ccccc1 [XLI]', '> 50%'),
  ('CC[C@H](Nc1nc(N)nc(C)c1C#N)c1nc2cccc(NCc3ccc(C(=O)NO)cc3)c2c(=O)n1-c1ccccc1 [Compound XL]', '> 50%'),
  ('CC[C@H](Nc1ncnc2[nH]cnc12)c1nc2cccc(CCCCNC(=O)NO)c2c(=O)n1-c1ccccc1 [Compound XXIV]', '25 to 50%');

====

Target: HDAC6 (Homo sapiens, UniProt Q9UBN7)
Sequence (Q9UBN7 whole entry, species assumed): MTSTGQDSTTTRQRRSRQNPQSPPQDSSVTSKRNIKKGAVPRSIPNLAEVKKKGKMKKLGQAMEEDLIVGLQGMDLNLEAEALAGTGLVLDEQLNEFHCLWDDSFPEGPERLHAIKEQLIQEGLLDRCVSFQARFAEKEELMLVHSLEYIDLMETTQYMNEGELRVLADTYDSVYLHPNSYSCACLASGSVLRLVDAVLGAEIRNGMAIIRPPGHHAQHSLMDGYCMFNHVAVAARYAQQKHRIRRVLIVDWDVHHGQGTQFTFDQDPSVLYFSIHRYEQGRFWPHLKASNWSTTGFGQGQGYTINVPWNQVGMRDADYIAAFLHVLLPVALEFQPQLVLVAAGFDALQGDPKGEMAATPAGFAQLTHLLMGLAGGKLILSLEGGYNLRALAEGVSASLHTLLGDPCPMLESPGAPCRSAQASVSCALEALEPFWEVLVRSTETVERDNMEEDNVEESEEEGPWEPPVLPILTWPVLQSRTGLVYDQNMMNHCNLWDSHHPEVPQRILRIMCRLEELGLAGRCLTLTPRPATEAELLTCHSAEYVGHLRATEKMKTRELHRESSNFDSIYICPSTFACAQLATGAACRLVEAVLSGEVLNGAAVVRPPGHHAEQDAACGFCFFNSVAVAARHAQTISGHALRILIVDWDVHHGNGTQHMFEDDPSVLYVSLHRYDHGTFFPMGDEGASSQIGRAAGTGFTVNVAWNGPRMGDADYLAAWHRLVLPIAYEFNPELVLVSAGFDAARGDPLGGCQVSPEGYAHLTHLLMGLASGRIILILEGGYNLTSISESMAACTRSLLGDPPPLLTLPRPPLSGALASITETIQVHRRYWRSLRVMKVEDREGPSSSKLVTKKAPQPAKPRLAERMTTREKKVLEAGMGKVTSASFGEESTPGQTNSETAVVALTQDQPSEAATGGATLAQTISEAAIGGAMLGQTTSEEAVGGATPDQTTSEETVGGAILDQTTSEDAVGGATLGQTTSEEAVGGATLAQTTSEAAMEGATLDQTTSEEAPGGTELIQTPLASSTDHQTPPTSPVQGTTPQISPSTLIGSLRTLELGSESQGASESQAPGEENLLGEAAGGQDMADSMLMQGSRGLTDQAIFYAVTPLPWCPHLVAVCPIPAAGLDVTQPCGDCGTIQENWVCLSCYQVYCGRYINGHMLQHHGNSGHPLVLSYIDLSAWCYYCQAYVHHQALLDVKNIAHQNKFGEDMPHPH
Assay: HDAC Fluorescent Activity Assay
Type: biochemical
Conditions: @ 1 μM; symbols ** / *; read-out: HDAC6 Inhibition Activity (% Inhibition class)
Measured Attribute: inhibition at 1 µM

INSERT INTO measurements (structure_string, measured_attribute, result) VALUES
  ('CC[C@H](Nc1ncnc2[nH]cnc12)c1nc2cccc(CC(=O)c3ccc(C(=O)NO)cc3)c2c(=O)n1-c1ccccc1', 'inhibition at 1 µM', '> 90%'),
  ('CC[C@H](Nc1ncnc2[nH]cnc12)c1nc(N2CCN(c3nc(C(=O)NO)co3)CC2)c2ccccc2n1', 'inhibition at 1 µM', '> 90%'),
  ('CC[C@H](Nc1nc(N)nc(C)c1C#N)c1nc2cccc(C#CCCCC(=O)NO)c2c(=O)n1-c1ccccc1', 'inhibition at 1 µM', '> 90%'),
  ('CC[C@H](Nc1ncnc2[nH]cnc12)c1nc2cccc(CC(=O)c3ccc(C(=O)Nc4ccccc4N)cc3)c2c(=O)n1-c1ccccc1', 'inhibition at 1 µM', '< 90%'),
  ('CC[C@H](Nc1ncnc2[nH]cnc12)c1nc(-c2ccc(C(=O)NO)cc2)c2ccccc2n1', 'inhibition at 1 µM', '> 90%'),
  ('CC[C@H](Nc1ncnc2[nH]cnc12)c1nc(N2CCN(c3nc(C(=O)NO)cs3)CC2)c2ccccc2n1', 'inhibition at 1 µM', '< 90%'),
  ('CC[C@H](Nc1ncnc2[nH]cnc12)c1nc2cccc(CNC(=O)c3cccc(B(O)O)c3)c2c(=O)n1-c1ccccc1', 'inhibition at 1 µM', '< 90%'),
  ('CC[C@H](Nc1nc(N)nc(C)c1C#N)c1nc2cccc(N3CCC(CC(=O)NO)CC3)c2c(=O)n1-c1ccccc1', 'inhibition at 1 µM', '< 90%'),
  ('CC[C@H](Nc1ncnc2[nH]cnc12)c1nc2cccc(-c3cnc(C(=O)NO)nc3)c2c(=O)n1-c1ccccc1', 'inhibition at 1 µM', '< 90%');
